test target: Adenosine receptor A2a (Homo sapiens)
Sequence (P29274 whole entry): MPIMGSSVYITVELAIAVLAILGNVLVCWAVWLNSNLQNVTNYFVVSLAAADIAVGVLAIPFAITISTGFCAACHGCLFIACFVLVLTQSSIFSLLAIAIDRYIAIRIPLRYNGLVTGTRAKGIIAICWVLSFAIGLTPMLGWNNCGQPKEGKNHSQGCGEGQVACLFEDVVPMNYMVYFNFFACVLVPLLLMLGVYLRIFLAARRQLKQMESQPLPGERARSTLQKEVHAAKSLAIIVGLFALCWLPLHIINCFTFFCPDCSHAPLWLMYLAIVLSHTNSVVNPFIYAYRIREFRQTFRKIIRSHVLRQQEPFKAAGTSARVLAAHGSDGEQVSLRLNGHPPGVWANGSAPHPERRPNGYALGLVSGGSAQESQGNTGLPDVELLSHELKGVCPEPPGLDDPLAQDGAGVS
assay name: Antagonist activity at human Adenosine receptor A2a transfected in HEK293 cells co-expressing CRE-luciferase plasmid assessed as reduction in CRE promoter activity by measuring effective concentration incubated for 18 hrs by luciferase based CRE reporter assay
metric name: EC50 (µM)

| smi | endpoint result |
| --- | --- |
| CNc1nc(C#Cc2ccccc2)nc2c1ncn2Cc1ccccc1 | 14.6 |
